test-method-notes: Oral bioavailability in mouse
Type: ADME, organism-based
protocol-conditions: in vivo

{"molecule": "Cc1cc(/C=C/c2ccc3cc(N(C)C)ccc3[n+]2C)c(C)n1-c1ccccc1 [PYRVINIUM]", "bioavailability": "< 1%"}

====

test-method-notes: Inhibition of LiCl activated Wnt/beta-catenin signaling (unknown origin) expressed in HEK293 cells harboring TCF/LEF-responsive luciferase preincubated with cells followed by LiCl addition and measured after 24 hrs by luciferase reporter gene assay
Assay type: cell-based
protocol-conditions: Homo sapiens
pIC50: −log10 of the molar value.

{"line-notation": "Cc1ccccc1-n1nnc(C(=O)Nc2ccc3ccccc3n2)c1C", "pIC50": 8.22}
